- target desc: ROCK2 (Homo sapiens (Human))
pIC50: −log10 of the molar value.
Record TRUE whenever pIC50 is at 8 or higher; record FALSE when lower.

Reference set (4 entries):
molecule	target desc	group
COc1cc(C(=O)NCc2ccccc2F)ccc1-c1cn[nH]c1	ROCK2 (Homo sapiens (Human))	TRUE
C[C@@H](NC(=O)c1cc(F)c(-c2cn[nH]c2)cc1F)c1ccccc1	ROCK2 (Homo sapiens (Human))	FALSE
COc1ccc(F)c(C(C)NC(=O)c2ccc(-c3c[nH]nc3C)cc2OC)c1 (stereo not drawn)	ROCK2 (Homo sapiens (Human))	FALSE
COc1cc(C(=O)NCc2cccc(N(C)C)c2)ccc1-c1cn[nH]c1	ROCK2 (Homo sapiens (Human))	FALSE

# input # bool: pIC50 of COc1cc(C(=O)NC[C@@H](C)c2ccccc2)ccc1-c1cn[nH]c1 >= 8
# output FALSE

# input # bool: pIC50 of Cc1cc(C(=O)NCc2cccc(C(=O)NC3CC3)c2)ccc1-c1cn[nH]c1 >= 8
# output TRUE

# input # bool: pIC50 of COc1cc(C(=O)NC(CCO)c2ccccc2)ccc1-c1cn[nH]c1 (stereo not drawn) >= 8
# output FALSE

# input # bool: pIC50 of COc1cc(C(=O)NCc2cccc(N(C)C(C)=O)c2)ccc1-c1cn[nH]c1 >= 8
# output FALSE

# input # bool: pIC50 of COc1cc(C(=O)NCc2ccccc2Cl)ccc1-c1c[nH]nc1C >= 8
# output FALSE

# input # bool: pIC50 of COc1cc(C(=O)NC(C)c2cccc(CN3CCN(C)CC3)c2)ccc1-c1cn[nH]c1 (racemic) >= 8
# output FALSE

# input # bool: pIC50 of COc1ccc(F)c(C(C)NC(=O)c2ccc(-c3cn[nH]c3)cc2OC)c1 (stereo not drawn) [Example 229] >= 8
# output FALSE

# input # bool: pIC50 of COc1cc(C(=O)NCCc2cccc(C(F)(F)F)c2)ccc1-c1cn[nH]c1 >= 8
# output FALSE

# input # bool: pIC50 of COc1ccc(F)c(C(C)NC(=O)c2ccc(-c3cn[nH]c3)cc2OC)c1 (stereo not drawn) [Example 228] >= 8
# output TRUE

# input # bool: pIC50 of C[C@@H](NC(=O)c1ccc(-c2cn[nH]c2)c(CO)c1)c1ccccc1 >= 8
# output FALSE

* * *

- target desc: ROCK2 (Homo sapiens (Human), UniProt O75116)
- Sequence (O75116 whole entry, species assumed): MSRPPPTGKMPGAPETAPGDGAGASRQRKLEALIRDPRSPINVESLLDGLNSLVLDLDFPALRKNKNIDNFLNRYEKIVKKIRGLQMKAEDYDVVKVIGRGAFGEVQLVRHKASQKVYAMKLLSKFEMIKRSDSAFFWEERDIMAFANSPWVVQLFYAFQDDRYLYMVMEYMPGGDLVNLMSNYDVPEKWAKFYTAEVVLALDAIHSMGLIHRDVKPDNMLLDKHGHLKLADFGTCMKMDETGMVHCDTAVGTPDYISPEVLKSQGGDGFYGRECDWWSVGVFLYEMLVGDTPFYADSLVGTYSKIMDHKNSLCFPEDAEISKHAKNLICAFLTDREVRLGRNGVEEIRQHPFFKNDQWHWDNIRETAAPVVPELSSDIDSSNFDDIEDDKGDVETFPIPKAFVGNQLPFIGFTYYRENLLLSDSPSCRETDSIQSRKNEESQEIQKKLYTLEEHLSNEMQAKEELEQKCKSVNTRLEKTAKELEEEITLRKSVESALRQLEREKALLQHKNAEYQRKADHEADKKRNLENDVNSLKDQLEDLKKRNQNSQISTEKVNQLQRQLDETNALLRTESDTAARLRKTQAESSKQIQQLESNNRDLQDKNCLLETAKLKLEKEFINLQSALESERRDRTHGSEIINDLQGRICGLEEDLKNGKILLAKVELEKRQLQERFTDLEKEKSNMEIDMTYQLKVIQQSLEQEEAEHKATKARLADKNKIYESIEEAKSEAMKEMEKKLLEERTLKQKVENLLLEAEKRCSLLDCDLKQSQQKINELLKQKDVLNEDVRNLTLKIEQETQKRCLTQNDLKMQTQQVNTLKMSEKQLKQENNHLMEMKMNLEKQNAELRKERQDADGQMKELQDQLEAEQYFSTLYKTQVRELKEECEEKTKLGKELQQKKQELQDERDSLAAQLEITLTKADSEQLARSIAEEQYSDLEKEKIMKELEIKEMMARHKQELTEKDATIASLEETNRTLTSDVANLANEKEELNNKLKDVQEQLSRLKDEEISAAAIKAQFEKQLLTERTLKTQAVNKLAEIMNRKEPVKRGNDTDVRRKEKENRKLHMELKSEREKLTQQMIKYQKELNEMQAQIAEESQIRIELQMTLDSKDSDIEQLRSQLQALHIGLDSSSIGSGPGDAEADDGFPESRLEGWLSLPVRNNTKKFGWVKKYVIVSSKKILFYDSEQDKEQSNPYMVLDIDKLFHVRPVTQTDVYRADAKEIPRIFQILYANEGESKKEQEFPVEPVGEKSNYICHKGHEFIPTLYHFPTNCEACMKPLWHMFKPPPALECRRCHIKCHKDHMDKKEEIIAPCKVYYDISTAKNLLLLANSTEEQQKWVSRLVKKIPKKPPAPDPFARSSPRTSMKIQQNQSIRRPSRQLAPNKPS
Exercise: for every item that follows, state its recorded pIC50.
Answers are plain numbers, as −log10 of the molar value.

Guide cases for pIC50, answers given:
compound	pIC50
COc1cc(-c2c[nH]nc2C)ccc1C(=O)NCc1c(F)cccc1Cl	7.00
COc1cc(C(=O)N[C@@H](Cc2ccc(F)cc2)C(=O)N(C)C)ccc1-c1cn[nH]c1	6.00
COc1cc(C(=O)N[C@H](CNC(C)=O)c2ccccc2)ccc1-c1cn[nH]c1	8.03
COCCOc1cc(-c2cn[nH]c2)ccc1C(=O)N[C@H](C)c1cccc(OC)c1	8.47

Report pIC50 for every entry below.
1. COc1cc(C(=O)NCCc2ccccc2Cl)ccc1-c1cn[nH]c1
2. COc1cc(C(=O)NCC(O)c2cccc(O)c2)ccc1-c1cn[nH]c1 (centres unmarked)
3. CCOc1cc(C(=O)N[C@H](C)c2ccc(F)cc2)ccc1-c1cn[nH]c1
4. COc1cc(C(=O)NCc2cccc(C(=O)N3CCCC3)c2)ccc1-c1cn[nH]c1

# output
8.18
7.90
7.13
7.63

* * *

ROCK1 (Homo sapiens (Human)) measurements of IC50, listed per entry.
Numbers only, in nM.

Guide cases for IC50, answers given:
molecule	measured
COc1cc(-c2cn[nH]c2)ccc1C(=O)NC(C)c1c(F)cccc1Cl (centres unmarked) [Example 223]	59.6
Cc1cc(C(=O)N[C@H](CN(C)C)c2ccccc2)ccc1-c1cn[nH]c1 [Example 263]	6.45
COc1cc(C(=O)NCc2cc(Cl)ccc2Cl)ccc1-c1cn[nH]c1 [Example 76]	7.72
COc1cc(C(=O)NC(C)c2cccc3ccccc23)ccc1-c1cn[nH]c1 (stereo in doubt) [Example 172]	6.68
C[C@@H](NC(=O)c1ccc(-c2cn[nH]c2)c(CO)c1)c1ccccc1 [Example 272]	284
CC[C@@H](NC(=O)c1ccc(-c2cn[nH]c2)c(OC)c1)c1c(F)cccc1F [Example 264]	77.3
COc1cc(C(=O)NCc2cccc(C(N)=O)c2)ccc1-c1cn[nH]c1 [Example 250]	10
CCC(O)c1cc(C(=O)N[C@H](C)c2ccccc2)ccc1-c1cn[nH]c1 (some centres unmarked) [Example 284]	842
COc1cc(C(=O)N[C@H](C)[C@@H](O)c2ccccc2)ccc1-c1cn[nH]c1 [Example 42]	26.3
COc1cc(C(=O)N[C@@H](CO)Cc2ccccc2)ccc1-c1cn[nH]c1 [Example 133]	77.9

Report IC50 for every entry below.
1. COc1cc(C(=O)N[C@H](C)c2ccc(F)cc2)ccc1-c1cn[nH]c1 [Example 73]
2. COc1cc(-c2cn[nH]c2)ccc1C(=O)NC(C)c1c(F)cccc1F (centres unmarked) [Example 226]

# output
1: 9.03; 2: 26.5

Report IC50 for every entry below.
1. COc1cc(C(=O)NC(C)c2ccccc2Cl)ccc1-c1cn[nH]c1 (racemic) [Example 4]
2. COc1cc(C(=O)NCCc2ccc(F)cc2)ccc1-c1cn[nH]c1 [Example 24]
3. CC(O)c1cc(C(=O)N[C@H](C)c2ccccc2F)ccc1-c1cn[nH]c1 (some centres unmarked) [Example 282]
4. C[C@@H](NC(=O)c1ccc(-c2cn[nH]c2)c(OCC(C)(C)O)c1)c1ccccc1 [Example 154]

# output
[17.7, 37.4, 242, 1790]

* * *

ROCK2 (Homo sapiens (Human), UniProt O75116) measurements of IC50, listed per entry.
One number for each entry, in nM.

Guide cases for IC50, answers given:
compound	IC50, nM
CC(O)c1cc(C(=O)N[C@H](C)c2c(F)cccc2F)ccc1-c1cn[nH]c1 (some centres unmarked) [Example 293]	16.2
COc1cc(C(=O)NCCc2ccccc2)ccc1-c1cn[nH]c1 [Example 36]	10.5

Report IC50 for every entry below.
1. COc1cc(C(=O)N[C@@H](Cc2ccccc2)[C@H](O)CO)ccc1-c1cn[nH]c1 [Example 216]
2. COc1cc(C(=O)N[C@H](C)[C@@H](O)c2ccccc2)ccc1-c1cn[nH]c1 [Example 42]
3. C[C@@H](NC(=O)c1ccc(-c2cn[nH]c2)c(O)c1)c1ccc(F)cc1 [Example 183]

# output
1. 11
2. 11
3. 7.68

* * *

ROCK2 (Homo sapiens (Human), UniProt O75116) measurements of pIC50, listed per entry.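 Note: reaction stopped with EDTA, then phosphorylated and unphosphorylated peptide resolved by microfluidic electrophoresis, kinase inhibition computed at each compound concentration in dose-response series, DMSO under 2%.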
Numbers only, as −log10 of the molar value.

compound	pIC50
CC(O)c1cc(C(=O)N[C@H](C)c2ccccc2)ccc1-c1cn[nH]c1 (stereo partly shown) [Example 281]	8.01
COc1cc(C(=O)NCc2ccc(F)c(OC)c2F)ccc1-c1cn[nH]c1	7.78
O=C(N[C@H](CO)c1ccccc1)c1ccc(-c2cn[nH]c2)c(OC(F)F)c1	8.16

The compound COc1cccc([C@@H](C)NC(=O)c2ccc(-c3cn[nH]c3)cc2F)c1 showed pIC50 equal to 8.05

* * *

- target desc: ROCK1 (Homo sapiens (Human), UniProt Q13464);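 note: Read-out is separation of phosphorylated from unphosphorylated peptide, with kinase activity inhibition computed at every concentration of a dose-response series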
- Sequence (Q13464 whole entry, species assumed): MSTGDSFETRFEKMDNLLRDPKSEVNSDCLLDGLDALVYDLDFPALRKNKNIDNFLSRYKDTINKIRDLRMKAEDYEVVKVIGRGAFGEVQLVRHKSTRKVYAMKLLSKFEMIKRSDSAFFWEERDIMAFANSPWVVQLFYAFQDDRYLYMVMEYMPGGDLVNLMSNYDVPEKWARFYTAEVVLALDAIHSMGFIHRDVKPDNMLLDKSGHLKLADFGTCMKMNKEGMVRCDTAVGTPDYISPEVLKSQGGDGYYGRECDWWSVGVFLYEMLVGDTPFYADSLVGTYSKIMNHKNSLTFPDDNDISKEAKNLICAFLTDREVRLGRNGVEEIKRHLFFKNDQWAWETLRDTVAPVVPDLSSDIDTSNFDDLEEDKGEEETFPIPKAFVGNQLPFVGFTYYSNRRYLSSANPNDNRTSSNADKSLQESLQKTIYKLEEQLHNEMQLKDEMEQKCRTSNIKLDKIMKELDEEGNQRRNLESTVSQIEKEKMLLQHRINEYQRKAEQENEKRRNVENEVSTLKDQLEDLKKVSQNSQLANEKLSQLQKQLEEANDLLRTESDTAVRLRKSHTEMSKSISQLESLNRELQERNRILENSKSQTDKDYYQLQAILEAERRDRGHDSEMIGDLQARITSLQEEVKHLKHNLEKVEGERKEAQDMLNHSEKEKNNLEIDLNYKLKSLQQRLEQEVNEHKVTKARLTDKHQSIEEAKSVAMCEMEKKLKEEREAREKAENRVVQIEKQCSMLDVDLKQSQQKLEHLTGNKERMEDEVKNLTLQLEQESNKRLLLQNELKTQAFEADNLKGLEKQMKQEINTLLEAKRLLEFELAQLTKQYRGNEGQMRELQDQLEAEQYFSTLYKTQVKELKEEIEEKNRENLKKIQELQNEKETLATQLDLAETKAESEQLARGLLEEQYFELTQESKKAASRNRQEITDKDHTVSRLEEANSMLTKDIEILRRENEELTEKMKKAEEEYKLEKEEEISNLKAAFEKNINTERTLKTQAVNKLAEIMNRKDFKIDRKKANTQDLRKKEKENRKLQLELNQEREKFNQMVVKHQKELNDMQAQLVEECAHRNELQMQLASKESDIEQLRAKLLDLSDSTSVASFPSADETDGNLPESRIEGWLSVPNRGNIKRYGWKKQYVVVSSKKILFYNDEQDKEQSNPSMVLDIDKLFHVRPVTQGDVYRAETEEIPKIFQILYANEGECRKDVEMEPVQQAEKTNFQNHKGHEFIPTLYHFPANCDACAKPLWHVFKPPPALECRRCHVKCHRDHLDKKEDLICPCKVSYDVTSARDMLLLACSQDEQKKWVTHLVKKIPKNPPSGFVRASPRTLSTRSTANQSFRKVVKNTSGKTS
fulfilled if IC50 is below 0.05 µM. not fulfilled if not; exact matches included in not fulfilled.

compound	target desc	group
COc1cc(C(=O)NCc2ccccc2F)ccc1-c1cn[nH]c1	ROCK1 (Homo sapiens (Human), UniProt Q13464)	fulfilled
COc1cc(C(=O)NC[C@H](O)c2ccccc2)ccc1-c1cn[nH]c1	ROCK1 (Homo sapiens (Human), UniProt Q13464)	not fulfilled
COc1cc(-c2cn[nH]c2)ccc1C(=O)N[C@H](CCO)c1ccccc1	ROCK1 (Homo sapiens (Human), UniProt Q13464)	fulfilled
COc1cc(-c2cn[nH]c2)ccc1C(=O)N[C@H](CO)c1c(F)cccc1F	ROCK1 (Homo sapiens (Human), UniProt Q13464)	not fulfilled
COc1cc(C(=O)NCc2nc3ccccc3s2)ccc1-c1cn[nH]c1	ROCK1 (Homo sapiens (Human), UniProt Q13464)	not fulfilled
CCOc1cc(-c2cn[nH]c2)ccc1C(=O)N[C@H](C)c1cccc(OC)c1	ROCK1 (Homo sapiens (Human), UniProt Q13464)	fulfilled
Cc1cc(C(=O)N[C@H](C)c2ccc(F)cc2)ccc1-c1cn[nH]c1	ROCK1 (Homo sapiens (Human), UniProt Q13464)	fulfilled
COc1cccc([C@@H](C)NC(=O)c2ccc(-c3c[nH]nc3C(C)O)cc2OC)c1 (stereo partly shown)	ROCK1 (Homo sapiens (Human), UniProt Q13464)	not fulfilled

# input Field: below-cutoff. Rule: recorded IC50 strictly less than 0.05 µM. Subject: COc1cc(C(=O)NCc2cc(F)cc(F)c2F)ccc1-c1cn[nH]c1
# output fulfilled

# input Field: below-cutoff. Rule: recorded IC50 strictly less than 0.05 µM. Subject: COc1cc(C(=O)NCc2ccc3sccc3c2)ccc1-c1cn[nH]c1
# output fulfilled

# input Field: below-cutoff. Rule: recorded IC50 strictly less than 0.05 µM. Subject: O=C(N[C@H](CO)c1c(F)cccc1F)c1ccc(-c2cn[nH]c2)c(OC(F)F)c1
# output not fulfilled

# input Field: below-cutoff. Rule: recorded IC50 strictly less than 0.05 µM. Subject: COc1cc(C(=O)NCc2cccc(C(=O)NCC(C)(C)O)c2)ccc1-c1cn[nH]c1
# output fulfilled

These entries and their values trace back to patent US9458110B2.
